Source: ChEMBL document CHEMBL5614413

- Tested on: Enterococcus faecalis
- ASSAY TEXT: Antibacterial activity against vancomycin-susceptible Enterococcus faecalis ATCC 29212
- Format: functional
Hi there, I'd appreciate the recorded MIC for every entry that follows.
Give the number; µg/mL is assumed, so skip it.

Problem: // query MIC value for entry CC(=O)c1c(OCCCNCCN(C)C)c2c(c3c1OC(C)(CCC=C(C)C)C=C3)OC(C)(CCC=C(C)C)C=C2 (configuration not stated)
Solution: 1

Problem: Another compound: CN[C@H](CC(C)C)C(=O)N[C@H]1C(=O)N[C@@H](CC(N)=O)C(=O)N[C@H]2C(=O)N[C@H]3C(=O)N[C@H](C(=O)N[C@H](C(=O)O)c4cc(O)cc(O)c4-c4cc3ccc4O)[C@H](O)c3ccc(c(Cl)c3)Oc3cc2cc(c3O[C@@H]2O[C@H](CO)[C@@H](O)[C@H](O)[C@H]2O[C@H]2C[C@](C)(N)[C@H](O)[C@H](C)O2)Oc2ccc(cc2Cl)[C@H]1O
Solution: 2

Problem: Another compound: CCCCN(CCCC)CCCNCCCOc1ccc(/C=C/C(=O)c2ccc3c(c2OC)C=CC(C)(CCC=C(C)C)O3)cc1 (configuration not stated)
Solution: 2

Problem: Another compound: CC(=O)c1ccc2c(c1OCCCN(C)C)C=CC(C)(CCC=C(C)C)O2 (configuration not stated)
Solution: 16

Problem: Another compound: COc1c(C(=O)/C=C/c2ccc(OCCCN)cc2)ccc2c1C=CC(C)(CCC=C(C)C)O2 (configuration not stated)
Solution: 16

Problem: Another compound: CC(=O)c1c(OCCCN(CCCN(C)C)CCCN(C)C)c2c(c3c1OC(C)(CCC=C(C)C)C=C3)OC(C)(CCC=C(C)C)C=C2 (configuration not stated)
Solution: 4

Problem: Another compound: CC(=O)c1ccc2c(c1OCCCN1CCCC1)C=CC(C)(CCC=C(C)C)O2 (configuration not stated)
Solution: 16

----------
- ASSAY TEXT: Selectivity index, ratio of HC50 for hemolytic activity in sheep RBC to MIC for antibacterial activity against methicillin-resistant Staphylococcus aureus ATCC 43300
- Format: toxicity
- RUN PARAMETERS: sheep red blood cells (erythrocytes), read-out: Selectivity Index
Entries are grouped by selectivity ratio into these classes: lower band: < 5; central band: ≥ 5 and < 10; upper band: ≥ 10

Problem: Record COc1c(C(=O)/C=C/c2ccc(OCCCN(C)CCCN(C)C)cc2)ccc2c1C=CC(C)(CCC=C(C)C)O2 (stereo not drawn) — which class?
Solution: upper band

Problem: Another molecule: CC(=O)c1ccc2c(c1OCCCN1CCOCC1)C=CC(C)(CCC=C(C)C)O2 (stereo not drawn)
Solution: lower band

Problem: Another molecule: CC(=O)c1c(OCCCNCCCN2CCOCC2)c2c(c3c1OC(C)(CCC=C(C)C)C=C3)OC(C)(CCC=C(C)C)C=C2 (stereo not drawn)
Solution: lower band

Problem: Another molecule: CCN(CC)C(=O)COc1c(C(C)=O)ccc2c1C=CC(C)(CCC=C(C)C)O2 (stereo not drawn)
Solution: lower band

Problem: Another molecule: COc1c(C(=O)/C=C/c2ccc(OCCCNCCN(C)C)cc2)ccc2c1C=CC(C)(CCC=C(C)C)O2 (stereo not drawn)
Solution: upper band

Problem: Another molecule: CNCCCOc1ccc(/C=C/C(=O)c2ccc3c(c2OC)C=CC(C)(CCC=C(C)C)O3)cc1 (stereo not drawn)
Solution: central band

Problem: Another molecule: CC(=O)c1ccc2c(c1OCC(=O)N(CCCN)CCCN)C=CC(C)(CCC=C(C)C)O2.Cl.Cl (stereo not drawn)
Solution: upper band

Problem: Another molecule: CC(=O)c1ccc2c(c1OCCCN(C)C)C=CC(C)(CCC=C(C)C)O2 (stereo not drawn)
Solution: upper band

Problem: Another molecule: CC(=O)c1ccc2c(c1OCC(=O)NCCCN1CCN(C)CC1)C=CC(C)(CCC=C(C)C)O2 (stereo not drawn)
Solution: lower band

Problem: Another molecule: COc1c(C(=O)/C=C/c2ccc(OCCCN)cc2)ccc2c1C=CC(C)(CCC=C(C)C)O2 (stereo not drawn)
Solution: upper band

Problem: Another molecule: CCCCN(CCCC)CCCNCCCOc1c2c(c3c(c1C(C)=O)OC(C)(CCC=C(C)C)C=C3)OC(C)(CCC=C(C)C)C=C2 (stereo not drawn)
Solution: central band

Problem: Another molecule: CC(=O)c1c(OCCCN(CCCN(C)C)CCCN(C)C)c2c(c3c1OC(C)(CCC=C(C)C)C=C3)OC(C)(CCC=C(C)C)C=C2 (stereo not drawn)
Solution: upper band

Problem: Another molecule: CC(=O)c1ccc2c(c1OCC(=O)NCCCN1CCCC1)C=CC(C)(CCC=C(C)C)O2 (stereo not drawn)
Solution: central band

Problem: Another molecule: CC(=O)c1c(OCCCNCCN(C)C)c2c(c3c1OC(C)(CCC=C(C)C)C=C3)OC(C)(CCC=C(C)C)C=C2 (stereo not drawn)
Solution: upper band
